Reference source for all entries: patent US20240018502A1

testSystem: plasma purified human complement protein C3 (human) (UniProt P01024)
Sequence (P01024 23-667, chain 1 of 2): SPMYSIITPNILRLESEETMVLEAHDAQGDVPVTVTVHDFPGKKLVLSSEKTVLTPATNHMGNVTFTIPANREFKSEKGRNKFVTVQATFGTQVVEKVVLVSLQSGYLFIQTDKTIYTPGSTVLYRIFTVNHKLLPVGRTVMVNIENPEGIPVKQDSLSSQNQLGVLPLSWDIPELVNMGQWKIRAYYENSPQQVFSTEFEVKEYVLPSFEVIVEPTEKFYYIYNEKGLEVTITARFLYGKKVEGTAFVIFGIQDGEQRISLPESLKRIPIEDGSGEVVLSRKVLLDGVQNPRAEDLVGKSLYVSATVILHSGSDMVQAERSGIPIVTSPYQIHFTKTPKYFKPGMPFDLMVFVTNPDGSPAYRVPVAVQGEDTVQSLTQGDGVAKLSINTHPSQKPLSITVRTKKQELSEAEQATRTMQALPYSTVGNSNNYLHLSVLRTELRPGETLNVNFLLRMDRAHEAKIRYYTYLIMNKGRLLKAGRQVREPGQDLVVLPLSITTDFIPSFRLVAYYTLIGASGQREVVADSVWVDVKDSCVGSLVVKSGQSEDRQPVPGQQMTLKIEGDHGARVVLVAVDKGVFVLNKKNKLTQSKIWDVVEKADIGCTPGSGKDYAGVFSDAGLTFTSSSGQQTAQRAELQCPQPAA
Sequence (P01024 672-1663, chain 2 of 2): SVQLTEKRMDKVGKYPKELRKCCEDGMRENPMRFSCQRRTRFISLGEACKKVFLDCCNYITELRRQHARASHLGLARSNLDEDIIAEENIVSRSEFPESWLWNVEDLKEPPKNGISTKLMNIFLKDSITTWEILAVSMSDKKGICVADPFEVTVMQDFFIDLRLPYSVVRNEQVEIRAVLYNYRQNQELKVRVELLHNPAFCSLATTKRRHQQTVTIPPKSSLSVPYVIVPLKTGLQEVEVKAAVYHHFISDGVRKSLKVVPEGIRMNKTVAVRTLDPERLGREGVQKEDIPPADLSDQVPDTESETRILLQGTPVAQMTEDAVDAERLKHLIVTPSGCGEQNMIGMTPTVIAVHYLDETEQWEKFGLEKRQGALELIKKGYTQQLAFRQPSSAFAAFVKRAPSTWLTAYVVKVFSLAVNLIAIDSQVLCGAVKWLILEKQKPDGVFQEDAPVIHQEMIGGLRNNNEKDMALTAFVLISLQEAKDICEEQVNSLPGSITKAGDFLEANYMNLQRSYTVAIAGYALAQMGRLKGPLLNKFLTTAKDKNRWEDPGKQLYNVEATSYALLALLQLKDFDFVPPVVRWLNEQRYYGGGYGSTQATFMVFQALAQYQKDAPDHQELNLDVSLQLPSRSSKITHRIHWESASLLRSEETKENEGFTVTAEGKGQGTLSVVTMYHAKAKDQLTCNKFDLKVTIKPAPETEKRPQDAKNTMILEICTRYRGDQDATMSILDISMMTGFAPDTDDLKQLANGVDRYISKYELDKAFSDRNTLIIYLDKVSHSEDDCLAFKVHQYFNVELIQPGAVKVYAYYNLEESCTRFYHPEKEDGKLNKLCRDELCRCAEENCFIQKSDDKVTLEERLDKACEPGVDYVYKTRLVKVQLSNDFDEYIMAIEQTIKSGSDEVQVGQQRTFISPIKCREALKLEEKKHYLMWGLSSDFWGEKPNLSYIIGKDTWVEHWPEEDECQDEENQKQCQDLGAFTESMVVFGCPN
runDescription: cell-based or functional assay
valueKind: EC50 hC3 cleavage (nM)

INSERT INTO measurements (binder, valueunits, experimentalresult) VALUES
  ('MTSP-1 protease domain Q38R/I41R/Y60gL/F99L/C122S/G151N/Q192G (enzyme) VVGGTDADEGEWPWQVSLHALGRGHRCGASLISPNWLVSAAHCYIDDRGFRLSDPTQWTAFLGLHDQSQRSAPGVQERRLKRIISHPFFNDFTLDYDIALLELEKPAEYSSMVRPISLPDASHVFPAGKAIWVTGWGHTQYGGTNALILQKGEIRVINQTTCENLLPQQITPRMMCVGFLSGGVDSCGGDSGGPLSSVEADGRIFQAGVVSWGDGCAQRNKPGVYTRLPLFRDWIKENTGV', 'nM', 388),
  ('MTSP-1 protease domain I41S/F97S/F99L/C122S/G151N/Q175L/Q192A/D217L (enzyme) VVGGTDADEGEWPWQVSLHALGQGHSCGASLISPNWLVSAAHCYIDDRGFRYSDPTQWTAFLGLHDQSQRSAPGVQERRLKRIISHPFFNDSTLDYDIALLELEKPAEYSSMVRPISLPDASHVFPAGKAIWVTGWGHTQYGGTNALILQKGEIRVINQTTCENLLPQLITPRMMCVGFLSGGVDSCAGDSGGPLSSVEADGRIFQAGVVSWGLGCAQRNKPGVYTRLPLFRDWIKENTGV', 'nM', 11.2),
  ('MTSP-1 protease domain Q38R/I41R/Y60gF/F99L/C122S/G151N/Q192G (enzyme) VVGGTDADEGEWPWQVSLHALGRGHRCGASLISPNWLVSAAHCYIDDRGFRFSDPTQWTAFLGLHDQSQRSAPGVQERRLKRIISHPFFNDFTLDYDIALLELEKPAEYSSMVRPISLPDASHVFPAGKAIWVTGWGHTQYGGTNALILQKGEIRVINQTTCENLLPQQITPRMMCVGFLSGGVDSCGGDSGGPLSSVEADGRIFQAGVVSWGDGCAQRNKPGVYTRLPLFRDWIKENTGV', 'nM', 197),
  ('MTSP-1 protease domain D96E/C122S/G151N/Q192T (enzyme) VVGGTDADEGEWPWQVSLHALGQGHICGASLISPNWLVSAAHCYIDDRGFRYSDPTQWTAFLGLHDQSQRSAPGVQERRLKRIISHPFFNEFTFDYDIALLELEKPAEYSSMVRPISLPDASHVFPAGKAIWVTGWGHTQYGGTNALILQKGEIRVINQTTCENLLPQQITPRMMCVGFLSGGVDSCTGDSGGPLSSVEADGRIFQAGVVSWGDGCAQRNKPGVYTRLPLFRDWIKENTGV', 'nM', 298),
  ('MTSP-1 protease domain I41S/F99L/C122S/Q175P/Q192V (enzyme) VVGGTDADEGEWPWQVSLHALGQGHSCGASLISPNWLVSAAHCYIDDRGFRYSDPTQWTAFLGLHDQSQRSAPGVQERRLKRIISHPFFNDFTLDYDIALLELEKPAEYSSMVRPISLPDASHVFPAGKAIWVTGWGHTQYGGTGALILQKGEIRVINQTTCENLLPQPITPRMMCVGFLSGGVDSCVGDSGGPLSSVEADGRIFQAGVVSWGDGCAQRNKPGVYTRLPLFRDWIKENTGV', 'nM', 64.3);
